The measured values listed here are drawn from ChEMBL document CHEMBL1201862.

Exercise: for every item that follows, state its recorded GI50.
Test system: U-251
Test: NCI tumour cell line growth inhibition, 48 h
Activity calls are given as the source filed them. No stated cut-off is given here; in the data, active = GI50 up to about 1.1 µM and inactive = higher.

Request: GI50, test system U-251, entry CC(=O)OC1=C2CC[C@@H]3C(CC[C@@]4(C)C3CC[C@@H]4OC(C)=O)[C@@]2(C)CC(C#N)C1=O (stereo not given in full)
27.4 µM (inactive)

Request: GI50, test system U-251, entry `COn1cc(C=O)c2ccccc21`
55.6 µM (inactive)

Request: GI50, test system U-251, entry CC12CCC(=O)C=C1CCC1C2C(O)CC2(C)C(c3csc(N)n3)CCC12.O=S(=O)(O)c1ccc(Br)cc1 (stereo not given)
> 100 µM (inactive)

Request: GI50, test system U-251, entry COC(=O)C(Cc1nc2ccccc2nc1O)C(=O)C(=O)Nc1ccc(OC)cc1[N+](=O)[O-] (stereo not given)
> 100 µM (inactive)

Request: GI50, test system U-251, entry `CCOC(=O)c1cc(C#N)[nH]c1-c1ccsc1`
25.8 µM (inactive)

Request: GI50, test system U-251, entry `CN(C)/C=N/NC(=O)/C(C#N)=C/N(C)C`
> 100 µM (inactive)

Request: GI50, test system U-251, entry Cn1/c(=N\N=C(\CNCCO)[C@@H](O)[C@@H]2OC(c3ccccc3)OC[C@H]2O)sc2ccccc21 (stereo not given in full)
17.3 µM (inactive)

Request: GI50, test system U-251, entry COc1ccc(/C=c2\sc3n(c2=O)C(N)=C(C#N)C(c2ccc(OC)cc2)C=3c2nc3ccccc3[nH]2)cc1 (stereo not given)
18 µM (inactive)

Request: GI50, test system U-251, entry NC1CC(n2ccc(=O)[nH]c2=O)OC1C(O)CO (stereo not given)
> 100 µM (inactive)

Request: GI50, test system U-251, entry CC1(C)CC2=C(Sc3ccccc3N2)C(=O)C1C(=O)C(=O)Nc1cc(Cl)ccc1Cl (stereo not given)
> 100 µM (inactive)
